# Test: Phase 1b study in RYR1-Related Myopathy patients, plasma pharmacokinetics
# Type: in vivo, human (RYR1-Related Myopathy patients)
# Conditions Used: human, plasma, po, 200 mg, 200 mg oral daily for 28 days, three subjects, time 0 hr
# Experimental: A Phase 1b study is performed in RYR1-Related Myopathy (RYR1-RM) affected individuals. Compound I was administered in a gastro-resistant tablet according to Example 3 at daily doses. The formulation comprised 20 mg Compound I (based on the mass of 4-[(7-methoxy-2,3-dihydro-1,4-benzothiazepin-4(5H)yl)methyl]benzoic acid). The first three participants were dosed with 120 mg of Compound I (6×20 mg tablets) daily for approximately 28 days. […]
Metric Name: concentration at 0 h
Give the number first and the unit second.

The measured concentration at 0 h associated with COc1ccc2c(c1)CN(Cc1ccc(C(=O)O)cc1)CCS2.O=C(O)/C=C/C(=O)O reads 7450 ng/mL
